- System: E. coli W3110 a TolC::Tn10 inclusive strain
- ASSAY NOTES: microbe, parasite or virus in culture
- Type: cell-based
- MEASUREMENT CONTEXT: Escherichia coli, read-out: W3110 IC50 (μM)
MEASUREMENT TYPE: IC50 (µM)
State the answer as a number, implicitly in µM.

Specify IC50 for `O=S(=O)(Nc1nccs1)c1ccc(NC(=S)Nc2ccccc2)cc1` and stop.
3.8

# return recorded IC50 for input `Cc1cc(F)ccc1NC(=S)Nc1ccc(S(=O)(=O)Nc2ncccn2)cc1`
7.08

Return IC50 for the following molecule: `O=C(Nc1ccc([N+](=O)[O-])cc1)NC(C(F)(F)F)C(F)(F)F`
8.89

====

- ASSAY NOTES: in vitro
- MEASUREMENT CONTEXT: human, wild-type HepG2 cells (ATCC)
MEASUREMENT TYPE: CC50

Solved cases (7 shown):
Report measured CC50; entry is `CNc1cc(Cl)c2nonc2c1[N+](=O)[O-]`
> 25.4 µM

Given the compound `c1ccc(CNc2ncnc3c2[nH]c2ccccc23)cc1` , write its reported CC50.
> 24.8 µM

Using known records, supply CC50 for `N#Cc1cccc(NC(=O)Nc2cccc(Cl)c2)c1`
21.1 µM

State its CC50: `O=C(CCn1cnc2ccccc2c1=O)Nc1cccc(Cl)c1`
> 24.8 µM

Determine from records and report CC50 for `O=S(=O)(Nc1nccs1)c1ccc(NC(=S)Nc2ccccc2)cc1`
> 24.8 µM

Please indicate CC50 recorded for `N#Cc1ccc(NC(=O)Nc2cccc(Cl)c2)cc1`
23.8 µM

Recall and state the measured CC50 for `Cc1cc(F)ccc1NC(=S)Nc1ccc(S(=O)(=O)Nc2ncccn2)cc1` .
> 24.8 µM

Next, consider the following compound.
For `Cc1c(Nc2nc3nonc3nc2Nc2ccc(F)cc2)c(=O)n(-c2ccccc2)n1C` , write its CC50.
20.6 µM

====

- Test system: E. coli W3110 a TolC::Tn10 inclusive strain
- ASSAY NOTES: microbe, parasite or virus in culture
- Type: cell-based
- MEASUREMENT CONTEXT: Escherichia coli, read-out: W3110 IC50 (μM)
IC50 strictly less than 9 µM = T. Otherwise F.

Would you please look over these solved cases?
Does N#Cc1cccc(NC(=O)Nc2cccc(Cl)c2)c1 [Compound 6] have IC50 strictly under 9 µM?
T

Take the compound N#Cc1ccc(NC(=O)Nc2cccc(Cl)c2)cc1 [Compound 7] and say whether its IC50 is less than 9 µM.
T

Dear colleague, could you confirm whether IC50 of Cc1c(Nc2nc3nonc3nc2Nc2ccc(F)cc2)c(=O)n(-c2ccccc2)n1C [Compound 5] falls below 9 µM? Thanks.
T

State whether 9 µM exceeds IC50 recorded for O=[N+]([O-])c1c(Nc2ccccc2)cc(Cl)c2nonc12 [Compound 2] .
F

Quick check: does CCOC(=O)c1cccc(-n2cc(Nc3nnnn3-c3ccccc3)cn2)c1 [Compound 14] have IC50 under 9 µM?
F

More entries:
In the record for O=S(=O)(Nc1nccs1)c1ccc(NC(=S)Nc2ccc(F)cc2)cc1 [Compound 10] , is IC50 less than 9 µM?
T

Does the reported IC50 of c1ccc(CNc2ncnc3c2[nH]c2ccccc23)cc1 [Compound 16] stay below 9 µM?
F

Say whether its IC50 is strictly beneath 9 µM. Entry: Cc1ccc(Nc2nc3nonc3nc2NC(C)C)cc1C [Compound 4]
T

For O=C(CCn1cnc2ccccc2c1=O)Nc1cccc(Cl)c1 [Compound 15] , is the recorded IC50 below the cut-off of 9 µM?
T

Lab log: compare recorded IC50 with 9 µM; is it strictly lower for O=C(Nc1ccc(N2CCOCC2)cc1)c1cccc(-n2cc(Nc3nnnn3C3CCCCC3)cn2)c1 [Compound 12] ?
F

Given the entry COc1cccc(CN2CCC3(CC2)NCCc2c3[nH]c3ccccc23)c1 [Compound 17] , would its reported IC50 be below 9 µM?
F

Is IC50 strictly under 9 µM for the entry COc1cc(NC(=O)c2cccc(-n3cc(Nc4nnnn4-c4ccccc4)cn3)c2)ccc1N1CCOCC1 [Compound 13] ?
T
